- target under test: human SLITRK6 on cells (human, UniProt Q9H5Y7 27-841)
- assay remarks: cell-based or functional assay
# Criterion met = IC50 (nM), cytotoxicity on CHP-212 cells (Cell Titer-Glo) below 0.9 nM (exclusive); Criterion not met = IC50 (nM), cytotoxicity on CHP-212 cells (Cell Titer-Glo) at/above 0.9 nM

- phA290-LD038 (8) (antibody, V domains shown, drug-linker LD038 on cysteines freed by TCEP reduction, DAR 8.0; positions not given, also called phA290 ADC) VH: QVQLVQSGAEVKKPGASVKVSCKASGYTFTSYYMHWVRQAPGQGLEWMGIINPSGGSTSYAQKFQGRVTMTRDTSTSTVYMELSSLRSEDTAVYYCARGFTRYFDYWGQGTLVTVSA VL: EIVMTQSPGTLSLSPGERATLSCRASQSVSKYLAWYQQRPGQAPRLLIYDASNRATGIPARFSGSGSGTDFTLTVSSLEPEDFAVYYCQQRYNWPLTFGGGTTVEIK: Criterion not met
- hu1H2-13-LD038 (8) (antibody, V domains shown, drug-linker LD038 on cysteines freed by TCEP reduction, DAR 8.0; positions not given, also called hu1H2-13 ADC) VH: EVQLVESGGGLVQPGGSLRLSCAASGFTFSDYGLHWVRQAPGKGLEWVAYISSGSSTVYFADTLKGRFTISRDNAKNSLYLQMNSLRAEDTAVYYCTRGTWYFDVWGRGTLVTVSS VL: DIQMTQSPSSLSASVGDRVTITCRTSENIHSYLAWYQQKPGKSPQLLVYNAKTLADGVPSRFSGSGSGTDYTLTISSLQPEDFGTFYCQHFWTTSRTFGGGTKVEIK: Criterion not met
- Sirtratumab-LD038 (8) (antibody, V domains shown, drug-linker LD038 on cysteines freed by TCEP reduction, DAR 8.0; positions not given, also called Sirtratumab ADC) VH: QVQLVESGGGVVQPGRSLRLSCAASGFTFSSYGMHWVRQAPGKGLEWVAVIWYDGSNQYYADSVKGRFTISRDNSKNTLFLQMHSLRAEDTAVYYCARGLTSGRYGMDWGQGTTVTVSS VL: DIVMTQSPLSLPVTPGEPASISCRSSQSLLLSHGFNYLDWYLQKPGQSPQLLIYLGSSRASGVPDRFSGSGSGTDFTLKISRVEAEDVGLYYCMQPLQIPWTFGQGTKVEIK: Criterion not met
- phA108-LD038 (8) (antibody, V domains shown, drug-linker LD038 on cysteines freed by TCEP reduction, DAR 8.0; positions not given, also called phA108 ADC) VH: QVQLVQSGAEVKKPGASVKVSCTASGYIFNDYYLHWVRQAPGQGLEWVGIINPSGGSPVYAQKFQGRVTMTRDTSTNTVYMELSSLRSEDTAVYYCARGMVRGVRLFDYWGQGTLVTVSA VL: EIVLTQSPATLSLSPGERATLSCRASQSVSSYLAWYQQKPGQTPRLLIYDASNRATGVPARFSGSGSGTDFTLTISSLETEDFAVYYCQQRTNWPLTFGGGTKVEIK: Criterion not met

Moving on to the next binder.
Below 0.9 nM on IC50 (nM), cytotoxicity on CHP-212 cells (Cell Titer-Glo)? Entry hu1H2-03-LD038 (8) (antibody, V domains shown, drug-linker LD038 on cysteines freed by TCEP reduction, DAR 8.0; positions not given, also called hu1H2-03 ADC) VH: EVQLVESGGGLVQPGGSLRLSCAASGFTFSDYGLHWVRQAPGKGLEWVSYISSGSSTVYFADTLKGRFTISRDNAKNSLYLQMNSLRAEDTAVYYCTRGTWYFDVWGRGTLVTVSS VL: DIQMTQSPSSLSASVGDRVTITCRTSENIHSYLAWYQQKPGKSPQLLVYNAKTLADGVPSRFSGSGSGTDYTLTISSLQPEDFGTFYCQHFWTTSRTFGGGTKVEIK
Criterion met

// data source = patent US20250296992A1
